Numbers sourced from patent US20200369755A1.

assay.system: T1, recombinant human 4R0N tau (human, UniProt P10636 2-758)
T1 construct: also called P10636-6
T1 sequence (P10636 other isoform, or with tags, fused parts or gaps limits assumed): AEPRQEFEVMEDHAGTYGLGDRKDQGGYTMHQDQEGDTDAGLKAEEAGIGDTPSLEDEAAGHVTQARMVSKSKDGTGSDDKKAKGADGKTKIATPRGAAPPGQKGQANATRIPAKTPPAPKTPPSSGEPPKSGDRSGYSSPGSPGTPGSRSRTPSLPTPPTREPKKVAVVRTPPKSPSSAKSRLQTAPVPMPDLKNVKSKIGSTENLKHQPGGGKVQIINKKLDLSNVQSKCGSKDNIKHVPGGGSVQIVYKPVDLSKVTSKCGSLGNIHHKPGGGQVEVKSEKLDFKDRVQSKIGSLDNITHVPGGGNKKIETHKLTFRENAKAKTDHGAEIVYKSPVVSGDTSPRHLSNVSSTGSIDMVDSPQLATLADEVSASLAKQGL
run.description: SPR, Biacore T200, antibody captured on anti-human Fc, tau as analyte, 1:1 fit
experimental.readout: koff (s⁻¹)
Give bare numbers, in s⁻¹.

Use these answered entries as a reference point.
[[record]]
binder = "hu3D6VHv1bA11/L2-DIM13 (antibody, V domains shown, Humanized antibody with human Fc) VH: EVQLVQSGAEVVKPGATVKISCKASGFNIKDYYLHWVRQRPGQGLEWIGWIDPENGDTVYDPKFQGRATITADTSTDTAYLQLGSLTSEDTAVYFCSTLDFWGQGTLVTVSS VL: DVVMTQSPLSLPVTLGQPASISCKSSQSLLDSDGKTYLNWLQQRPGQSPRRLIYGVSKLDSGVPDRFSGSGSGTDFTLKISRVEAEDVGVYYCWQGTHFPYTFGGGTKLEIK"
experimental_value = 0.00285

[[record]]
binder = "hu3D6VHv1bA11/L2-DIM20 (antibody, V domains shown, Humanized antibody with human Fc) VH: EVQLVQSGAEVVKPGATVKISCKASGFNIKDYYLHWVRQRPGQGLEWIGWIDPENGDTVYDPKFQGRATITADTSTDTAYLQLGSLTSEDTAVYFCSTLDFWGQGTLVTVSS VL: DVVMTQSPLSLPVTLGQPASISCKSSQSLLDSDGKTYLNWLQQRPGQSPRRLIYEVSKRDSGVPDRFSGSGSGTDFTLKISRVEAEDVGVYYCWQGTHFPYTFGGGTKLEIK"
experimental_value = 0.00935


# input for lookup
Task: May I ask what koff has been recorded for hu3D6VHv1bA11/L2-DIM22 (antibody, V domains shown, Humanized antibody with human Fc; also called hu3D6VHv1bA11 / hu3D6VLv2 L50G) VH: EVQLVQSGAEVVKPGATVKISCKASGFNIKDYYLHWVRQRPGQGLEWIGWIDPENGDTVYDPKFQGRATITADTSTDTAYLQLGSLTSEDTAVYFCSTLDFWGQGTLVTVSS VL: DVVMTQSPLSLPVTLGQPASISCKSSQSLLDSDGKTYLNWLLQRPGQSPRRLIYGVSKLDSGVPDRFSGSGSGTDFTLKISRVEAEDVGVYYCWQGTHFPYTFGGGTKLEIK ?
Result: 0.00251
